target: T1, shFcRn (soluble human FcRn) (human, UniProt P55899 24-297; P61769 21-119); assay: SPR, shFcRn immobilized on chip, antibody as analyte, pH 7.4;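 further: kinetics fitted with a 1:1 Langmuir model, association 200 s and dissociation 600 s in PBST, double-referenced against buffer-only and interspot signals, values averaged over repeated runs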
T1 construct: extracellular domain; Printed only as 'soluble human FcRn'; also called hFcRn (immobilized on a chip)
T1 sequence (P55899 24-297 limits assumed, chain 1 of 2): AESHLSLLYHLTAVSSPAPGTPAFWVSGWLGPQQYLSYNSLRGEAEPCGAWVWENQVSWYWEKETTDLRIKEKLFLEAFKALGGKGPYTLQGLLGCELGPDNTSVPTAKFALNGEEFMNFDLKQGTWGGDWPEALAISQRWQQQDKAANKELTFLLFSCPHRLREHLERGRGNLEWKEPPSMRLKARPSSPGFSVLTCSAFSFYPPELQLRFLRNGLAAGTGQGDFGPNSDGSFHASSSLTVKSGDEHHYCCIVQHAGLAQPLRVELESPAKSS
T1 sequence (P61769 21-119 limits assumed, chain 2 of 2): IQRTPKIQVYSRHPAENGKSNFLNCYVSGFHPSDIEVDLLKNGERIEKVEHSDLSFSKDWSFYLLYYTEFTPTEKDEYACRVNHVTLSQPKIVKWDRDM
Property measured: pKd
Lab note — pKd values are minus log10 of concentrations in M.

Consider the reported pKd for these binders:
Binder	Property measured	Val
HL161AN variant No. 21 (LC:N25Q, HC:C32Y Q82T) (antibody, human IgG1, V domains shown, Variable domains only) VL: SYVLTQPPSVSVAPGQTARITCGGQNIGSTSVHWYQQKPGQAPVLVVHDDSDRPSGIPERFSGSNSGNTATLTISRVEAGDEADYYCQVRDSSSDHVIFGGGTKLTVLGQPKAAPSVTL VH: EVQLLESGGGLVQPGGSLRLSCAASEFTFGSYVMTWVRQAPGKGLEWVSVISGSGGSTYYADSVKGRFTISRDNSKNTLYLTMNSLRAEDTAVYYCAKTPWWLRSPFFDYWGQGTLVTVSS	pKd	9.68
HL161AN variant No. 18 (LC:N25Q, HC:C32S Q82T) (antibody, human IgG1, V domains shown, Variable domains only) VL: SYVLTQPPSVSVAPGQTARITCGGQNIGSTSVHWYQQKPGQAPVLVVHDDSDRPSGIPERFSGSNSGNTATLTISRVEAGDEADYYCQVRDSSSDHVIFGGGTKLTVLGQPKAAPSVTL VH: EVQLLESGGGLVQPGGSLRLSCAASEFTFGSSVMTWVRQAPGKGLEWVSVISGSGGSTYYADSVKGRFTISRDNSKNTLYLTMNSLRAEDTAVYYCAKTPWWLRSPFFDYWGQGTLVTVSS	pKd	9.65

Next up:
// query pKd value for entry HL161AN variant No. 9 (LC:N25S, HC:C32Y Q82S) (antibody, human IgG1, V domains shown, Variable domains only) VL: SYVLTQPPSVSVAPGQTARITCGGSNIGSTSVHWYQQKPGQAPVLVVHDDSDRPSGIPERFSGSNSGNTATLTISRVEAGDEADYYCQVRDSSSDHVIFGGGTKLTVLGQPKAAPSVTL VH: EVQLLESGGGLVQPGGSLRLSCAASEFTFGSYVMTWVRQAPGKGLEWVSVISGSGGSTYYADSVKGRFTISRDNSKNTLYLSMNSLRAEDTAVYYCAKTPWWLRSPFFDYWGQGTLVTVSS
9.61
